Attribute: MIC
test system: S. pneumoniae Stpn_Erm 6849; assay: Antibacterial activity in vitro, MIC by broth microdilution; assay type: cell-based, Streptococcus pneumoniae; conditions: Table 5, Strain ID I: S. pneumoniae Stpn_Erm 6849; unit assumed
property_name: MIC (µg/mL)

{"compound": "C/C=C/[C@]12OC(=O)N(CCCCn3cnc(-c4cccnc4)c3)[C@@H]1[C@@H](C)C(=O)[C@H](C)C[C@](C)(OC)[C@H](O[C@@H]1O[C@H](C)C[C@H](N(C)C)[C@H]1O)[C@@H](C)C(=O)[C@@H](C)C(=O)O[C@@H]2CC", "property_name": "MIC", "result": 0.78}
{"compound": "CC[C@H]1OC(=O)[C@H](C)C(=O)[C@H](C)[C@@H](OC2O[C@H](C)C[C@H](N(C)C)[C@H]2O)[C@@](C)(OC)C[C@@H](C)C(=O)[C@H](C)[C@H]2N(CCCC(C)(C)n3cnc4ncccc43)C(=O)O[C@]12CC (stereo partly shown)", "property_name": "MIC", "result": 0.4}
{"compound": "CC[C@H]1OC(=O)[C@H](C)C(=O)[C@H](C)[C@@H](OC2O[C@H](C)C[C@H](N(C)C)[C@H]2O)[C@@](C)(OC)C[C@@H](C)C(=O)[C@H](C)[C@H]2N(CCCCn3cnc(-c4cnccn4)c3)C(=O)O[C@]12CC (stereo partly shown)", "property_name": "MIC", "result": 0.2}
{"compound": "CC[C@H]1OC(=O)[C@@](C)(F)C(=O)[C@H](C)[C@@H](OC2O[C@H](C)C[C@H](N(C)C)[C@H]2O)[C@@](C)(OC)C[C@@H](C)C(=O)[C@H](C)[C@H]2N(CCCCc3ccc4ccccc4n3)C(=O)O[C@]12CC (stereo partly shown)", "property_name": "MIC", "result": 0.78}
